testTarget: Influenza virus A/California/7/2009pdm (H1N1pdm) (Influenza A virus A/California/7/2009pdm (H1N1pdm))
experiment: ELISA on coated viral particles
Give Binding activity (absorbance at 492 nm) for every item shown.
One number for each entry.

Group 3 representative clone F081-281, Fab-cp3-type antibody (Fab, V domains shown) VH: QVQLVQSGSEVKKPGSSVKVSCSFKASGGIISKYAITWVRQAPGQGLEWMGGIIAIFGSTNYAQKFQGRLTITSDESTSTAYMELSSLTSEDTAVYYCGRGPHYYESHLDYWGQGTLVTVSS VL: EIVLTQSPGTLSLSPGERATLSCRASQGMSSSFLAWYQQKPGQPPRLLISGASTRATGIPDRFSGSGSGTDFTLTINRLEPEDFAVYYCQQYGSSPRTFGQGTKVEIK : 2.87
Group 47 representative clone F083-308, Fab-cp3-type antibody (Fab, V domains shown) VH: QVQLVQSGAEVKKPGSSVKVSCKASGGIFRSHAISWVRQAPGQGLEWMGGIIAIFGTTHYAQQFQGRVTITADESTSTVYMELSTLRSEDTAVYYCARGPNYFESYFDNWGQGTLVTVSS VL: EIVLTQSPATLSLSPGERATLSCRASQTISSYLAWYQQKPGQAPRLLIYGASNRATGIPARFSGSGSGTDFTLTINSLEPEDFAVYYCQQRSSWPPITFGQGTRLEIK : 1.21

Lab note: next binder to report on.
Consider the binder Group 35 representative clone F082-117, Fab-cp3-type antibody (Fab, V domains shown) VH: QVQLVQSGSEVKKPGSSVKVSCKSSGGILRRSAISWVRQAPGQGLEWMGGILAIFGTTKYAQKFQGRITITADESTNTVHMELSSLRPDDTAVYYCAGGPHYYVSYFDSWGQGTLVTVSS VL: DIQMTQSPATLSLSPGERATLSCRASQSVRSYLAWYQQKPGQAPRLLIYDASNRATGIPARFSGSGSGTEFTLTISRLEPEDFAVYYCQQRSNWLFTFGPGTKVDFK and give its measured Binding activity (absorbance at 492 nm).
3.11
